Target under test: TNF-alpha (Homo sapiens, UniProt P01375 P01375:77-233)
Sequence (P01375 77-233, one chain of several): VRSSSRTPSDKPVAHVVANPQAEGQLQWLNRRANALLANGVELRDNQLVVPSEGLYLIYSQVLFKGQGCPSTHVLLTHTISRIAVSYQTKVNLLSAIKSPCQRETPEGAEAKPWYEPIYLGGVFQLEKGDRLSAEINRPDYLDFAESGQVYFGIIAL
Run description: EMSA; 30 mM Tris-HCl pH 7.5, 150 mM NaCl, 1.5 mM MgCl2, 2 mM DTT, tRNA, room temperature; radiolabeled RNA 50 pM
Experimental setup: tags: recombinant human TNF-alpha (Sigma-Aldrich; biotinylated for SELEX); chain copies: 3
pKd: −log10 of the molar value.
Outcome measure: pKd

Binder	Result
ATK007 (ssRNA, 2'-F on all C and U) RNA: GCGGAAGCGUGCUGGGCCCGGCUUGCAGGUCGCCGAAAUGACCGCACACAUAACCCAGAGGUCGAU	~8.30

FYI, the data here is from patent US20190323012.
